- Measurement Target: UniProt:O15530
- Sequence (O15530 whole entry): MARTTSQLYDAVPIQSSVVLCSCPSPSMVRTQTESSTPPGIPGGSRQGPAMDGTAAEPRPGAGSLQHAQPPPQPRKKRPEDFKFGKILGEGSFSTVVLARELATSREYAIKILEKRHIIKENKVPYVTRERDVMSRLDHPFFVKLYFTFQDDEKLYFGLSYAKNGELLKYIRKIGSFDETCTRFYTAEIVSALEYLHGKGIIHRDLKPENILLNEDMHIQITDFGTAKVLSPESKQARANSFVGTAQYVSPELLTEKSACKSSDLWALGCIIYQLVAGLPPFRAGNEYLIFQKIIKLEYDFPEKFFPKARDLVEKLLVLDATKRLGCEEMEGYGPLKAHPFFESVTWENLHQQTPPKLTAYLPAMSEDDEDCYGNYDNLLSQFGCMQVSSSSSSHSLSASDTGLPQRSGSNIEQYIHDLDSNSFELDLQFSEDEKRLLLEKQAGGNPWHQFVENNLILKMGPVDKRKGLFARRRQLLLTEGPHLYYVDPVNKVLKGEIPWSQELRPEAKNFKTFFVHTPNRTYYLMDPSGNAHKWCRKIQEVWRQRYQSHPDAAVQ
- Assay Comment: PDK-1 kinase inhibition ELISA assay (phosphorylation of His6-tagged SGK1 S422D by PDK-1)
- Assay type: biochemical
- Assay Setup: PDK-1 ELISA, Table 11; read-out: Average IC50
pIC50: −log10 of the molar value.
Property Measured: pIC50

CCCCN(C[C@H](N)COc1cncc(-c2cc3c(cnc4cc(OC)c(OC)cc43)c(N)n2)c1)S(=O)(=O)c1ccccc1 : 7.68
COc1cc2ncc3c(N)nc(-c4cncc(O[C@@H]5CCNC5)c4)cc3c2cc1OC : 7.18

[A] COc1cc2ncc3c(N)nc(-c4cncc(OC[C@@H](N)COS(C)(=O)=O)c4)cc3c2cc1OC
[B] COc1cc2ncc3c(N)nc(-c4cncc(OC[C@@H](N)COc5ccccc5F)c4)cc3c2cc1OC
query: Could you determine which record has the numerically smaller pIC50? Candidates: A and B The response must carry the label of the picked entry.
result: A

The measurements presented in this section are drawn from patent US20080293712A1.
